Test system Muscarinic acetylcholine receptor M3 (Homo sapiens, UniProt P20309), AC50 listed for each of the molecules. Note: assay procedure not described here.

[[record]]
molecule = "OCCN1CCN(CC/C=C2/c3ccccc3Sc3ccc(Cl)cc32)CC1"
measurement = "> 10 µM"


Specify the recorded AC50 for Cc1ccc2c(-c3ccccc3)nc(=O)n(C(C)C)c2c1 , system: Muscarinic acetylcholine receptor M3 (Homo sapiens, UniProt P20309). > 30 µM

###

- Assay target: 5-hydroxytryptamine receptor 3A (Homo sapiens); note: assay procedure not described here
- Sequence (P46098 whole entry): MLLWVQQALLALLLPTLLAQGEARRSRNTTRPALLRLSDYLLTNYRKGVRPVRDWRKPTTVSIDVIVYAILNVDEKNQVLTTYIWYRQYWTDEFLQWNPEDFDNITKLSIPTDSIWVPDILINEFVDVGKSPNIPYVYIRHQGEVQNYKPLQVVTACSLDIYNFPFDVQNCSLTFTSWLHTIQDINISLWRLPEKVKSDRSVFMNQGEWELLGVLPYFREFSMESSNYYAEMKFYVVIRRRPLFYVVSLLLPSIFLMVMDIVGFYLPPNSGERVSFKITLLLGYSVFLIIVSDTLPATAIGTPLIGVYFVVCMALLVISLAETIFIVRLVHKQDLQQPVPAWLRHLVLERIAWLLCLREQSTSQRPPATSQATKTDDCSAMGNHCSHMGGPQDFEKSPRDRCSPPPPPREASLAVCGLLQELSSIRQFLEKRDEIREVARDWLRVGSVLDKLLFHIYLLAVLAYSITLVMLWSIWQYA
- Assay type: functional
Measured property: AC50

Jot down AC50 (5-hydroxytryptamine receptor 3A (Homo sapiens)) of CNC(=O)Oc1ccc2c(c1)[C@]1(C)CCN(C)[C@@H]1N2C [PHYSOSTIGMINE] . > 30 µM

Print 5-hydroxytryptamine receptor 3A (Homo sapiens) AC50 for Nc1nc(F)nc2c1ncn2[C@@H]1O[C@H](COP(=O)(O)O)[C@@H](O)[C@@H]1O [FLUDARABINE PHOSPHATE] . > 30 µM

Provide measured AC50 on 5-hydroxytryptamine receptor 3A (Homo sapiens) for CCCCC[C@H](O)/C=C/[C@H]1[C@H](O)CC(=O)[C@@H]1C/C=C\CCCC(=O)O [DINOPROSTONE] please. > 30 µM

Write down the reported AC50 (system: 5-hydroxytryptamine receptor 3A (Homo sapiens)) of C[C@H]1Oc2cc(cnc2N)-c2c(nn(C)c2C#N)CN(C)C(=O)c2ccc(F)cc21 [LORLATINIB] > 30 µM

Send back 5-hydroxytryptamine receptor 3A (Homo sapiens) AC50 of CC(=O)OCC[N+](C)(C)C [ACETYLCHOLINE] only. > 10 µM
